The reader will find reported logD values listed item by item below.
test: Distribution coefficient between 1-Octanol and aqueous phosphate buffer, logD of the compound at pH 7.4 by shake-flask method; assay type: physicochemical; settings: 1-octanol/aqueous phosphate buffer, read-out: logD
Number only, please.

CC[C@H](C(=O)Nc1cccc2c(-c3nc(Nc4cccc(S(C)(=O)=O)c4F)ncc3C)c[nH]c12)N1CCN(C)CC1 | 2.8
Cc1cnc(Nc2cccc(S(C)(=O)=O)c2F)nc1-c1c[nH]c2c(NC(=O)[C@@H](C)N3CCN(C)CC3)cccc12 | 2.5
C[C@H](C(=O)Nc1cccc2c(-c3nc(Nc4cccc(S(C)(=O)=O)c4F)ncc3F)c[nH]c12)N1CCN(C)CC1 | 2.7
CC[C@H](C(=O)Nc1cccc2c(-c3nc(Nc4cccc(S(C)(=O)=O)c4F)ncc3F)c[nH]c12)N1CCN(C)CC1 | 3.3

Proceed to the following item.
Query: Tell me measured logD for "COC[C@H](C(=O)Nc1cccc2c(-c3nc(Nc4cccc(S(C)(=O)=O)c4F)ncc3C)c[nH]c12)N1CCN(C)CC1" please.
Reply: 2.4

###

molecular target: Tyrosine-protein kinase JAK3 (Homo sapiens, UniProt P52333); test: Inhibition of N-terminal GST-tagged human recombinant JAK3 (781 to 1124 residues) expressed in insect cells using 5FAM-GEEPLYWSFPAKKK-NH2 peptide as substrate incubated for 10 mins measured after 90 mins in presence of ATP by caliper mobility shift assay
Sequence (P52333 whole entry, the tested form may be a part): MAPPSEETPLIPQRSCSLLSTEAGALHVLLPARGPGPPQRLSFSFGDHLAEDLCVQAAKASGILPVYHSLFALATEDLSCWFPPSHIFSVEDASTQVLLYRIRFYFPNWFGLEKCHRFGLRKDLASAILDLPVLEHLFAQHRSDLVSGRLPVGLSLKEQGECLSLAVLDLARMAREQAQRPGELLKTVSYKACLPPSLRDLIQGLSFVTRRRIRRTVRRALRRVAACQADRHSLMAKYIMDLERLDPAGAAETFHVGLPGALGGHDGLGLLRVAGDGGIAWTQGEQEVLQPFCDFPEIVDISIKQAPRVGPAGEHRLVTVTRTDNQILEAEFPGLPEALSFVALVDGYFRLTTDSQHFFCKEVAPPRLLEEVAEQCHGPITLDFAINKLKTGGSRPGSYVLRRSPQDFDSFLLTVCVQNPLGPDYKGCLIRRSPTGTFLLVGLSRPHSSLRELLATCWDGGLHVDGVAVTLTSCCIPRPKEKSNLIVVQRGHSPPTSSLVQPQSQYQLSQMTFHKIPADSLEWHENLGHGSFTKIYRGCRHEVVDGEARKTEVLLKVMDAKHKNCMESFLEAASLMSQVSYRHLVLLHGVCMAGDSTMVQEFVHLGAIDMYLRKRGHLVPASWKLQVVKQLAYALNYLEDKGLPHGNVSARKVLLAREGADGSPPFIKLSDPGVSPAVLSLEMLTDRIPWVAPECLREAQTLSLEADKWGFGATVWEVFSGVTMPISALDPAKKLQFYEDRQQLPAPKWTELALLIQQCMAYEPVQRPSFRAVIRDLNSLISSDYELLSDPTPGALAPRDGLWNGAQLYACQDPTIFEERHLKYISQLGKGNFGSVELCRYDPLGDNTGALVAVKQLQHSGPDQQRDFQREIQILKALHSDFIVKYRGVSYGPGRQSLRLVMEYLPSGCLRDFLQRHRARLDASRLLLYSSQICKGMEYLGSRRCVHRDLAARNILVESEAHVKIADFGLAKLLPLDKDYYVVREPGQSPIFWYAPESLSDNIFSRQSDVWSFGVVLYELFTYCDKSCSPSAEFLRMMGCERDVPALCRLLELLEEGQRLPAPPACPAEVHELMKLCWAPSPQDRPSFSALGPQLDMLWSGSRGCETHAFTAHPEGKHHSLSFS
pIC50: −log10 of the molar value.
Measured Endpoint: pIC50

Query: Tell me measured pIC50 for "C[C@H](C(=O)Nc1cccc2c(-c3nc(Nc4cccc(S(C)(=O)=O)c4F)ncc3F)c[nH]c12)N1CCN(C)CC1" please.
Reply: < 4.52

###

The reader will find reported IC50 values listed item by item below.
test: Inhibition of JAK/STAT signaling pathway in human CD4+ T cell assessed as inhibition of IL-4 stimulated STAT6 phosphorylation preincubated for 20 to 60 mins followed by IL-4 stimulation measured after 15 mins by flow cytometry analysis; format: cell-based
# unit: nM | format: bare number

Query: Tell me measured IC50 for "C[C@@H]1CCN(C(=O)CC#N)C[C@@H]1N(C)c1ncnc2[nH]ccc12" please.
Reply: 53

Query: Tell me measured IC50 for "COC[C@H](C(=O)Nc1cccc2c(-c3nc(Nc4cccc(S(C)(=O)=O)c4F)ncc3F)c[nH]c12)N1CCN(C)CC1" please.
Reply: 21

Query: Tell me measured IC50 for "C=CC(=O)Nc1cc(-c2ncnc3[nH]cc(C(=O)OCC)c23)ccc1C" please.
Reply: 134

###

The reader will find reported Papp A→B values listed item by item below.
test: Apparent permeability of compound across apical to basolateral side in human Caco-2 cells at pH 7.4; type: ADME, cell-based; conditions: Caco-2, pH 7.4
Units required after the number.

The cases that follow already have their Papp A→B on record.
COC[C@H](C(=O)Nc1cccc2c(-c3nc(Nc4cccc(S(C)(=O)=O)c4F)ncc3C)c[nH]c12)N1CCN(C)CC1 | 2.3 ×10⁻⁶ cm/s
COC[C@H](C(=O)Nc1cccc2c(-c3nc(Nc4cccc(S(C)(=O)=O)c4F)ncc3F)c[nH]c12)N1CCN(C)CC1 [LONDAMOCITINIB] | 2.7 ×10⁻⁶ cm/s
Cc1cnc(Nc2cccc(S(C)(=O)=O)c2F)nc1-c1c[nH]c2c(NC(=O)[C@@H](C)N3CCN(C)CC3)cccc12 | 4.5 ×10⁻⁶ cm/s

Proceed to the following item.
Query: Tell me measured Papp A→B for "CC[C@H](C(=O)Nc1cccc2c(-c3nc(Nc4cccc(S(C)(=O)=O)c4F)ncc3C)c[nH]c12)N1CCN(C)CC1" please.
Reply: 2.7 ×10⁻⁶ cm/s
